- subject.of.test: DLG2_3, Q15700
- protocol.summary: holdup assay
- Set-up: key: below the threshold = too weak to quantify, mostly under pKd 3.1 to 4
- assay.context: plain residues with an end cap or a label only (N-terminal biotin on a linker: ado-ado)
assay.readout: pKd

[
  {
    "binder": "RDYTQSSSSL [GRM5, P41594]",
    "test.result": "below the threshold"
  },
  {
    "binder": "ELKAEDEVQI [DCHS2, Q6V1P9]",
    "test.result": "below the threshold"
  },
  {
    "binder": "EAVTVESTSL [SLC22A11, Q9NSA0]",
    "test.result": "below the threshold"
  },
  {
    "binder": "GNDPDRGTSI [GRID2, O43424]",
    "test.result": 3.69
  }
]
